target: Mitogen-activated protein kinase 9 (Homo sapiens, UniProt P45984); also: in the data inactive means no Kd found up to 30 µM
Sequence (P45984 whole entry): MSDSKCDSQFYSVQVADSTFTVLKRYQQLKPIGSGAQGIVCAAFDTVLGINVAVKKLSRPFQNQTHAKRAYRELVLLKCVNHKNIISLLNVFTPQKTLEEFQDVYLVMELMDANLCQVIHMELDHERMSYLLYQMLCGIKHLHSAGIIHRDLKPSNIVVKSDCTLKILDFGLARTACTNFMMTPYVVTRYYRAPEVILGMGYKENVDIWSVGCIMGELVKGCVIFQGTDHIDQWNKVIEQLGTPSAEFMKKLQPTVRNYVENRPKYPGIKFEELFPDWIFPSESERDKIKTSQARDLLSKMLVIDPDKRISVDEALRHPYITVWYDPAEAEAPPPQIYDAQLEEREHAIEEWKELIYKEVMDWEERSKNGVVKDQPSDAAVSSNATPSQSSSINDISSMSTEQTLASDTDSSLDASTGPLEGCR
Calls of active or inactive are those of the source.
Answer with one of the outcomes given here: 1 (yes) = active, 0 (no) = inactive

Answered cases to consult:
Request: Kindly provide the recorded test outcome for the following compound: COc1c(OCCCN2CCOCC2)ccc2c1N=C(NC(=O)c1cnc(N)nc1)N1CCN=C21
Response: 0 (no)

Request: Kindly provide the recorded test outcome for the following compound: Cn1cc(-c2cnn3c(N)c(Br)c([C@@H]4CCCNC4)nc23)cn1
Response: 0 (no)

Request: Kindly provide the recorded test outcome for the following compound: Cc1cccc(-c2nn3c(c2-c2ccnc4ccc(C(N)=O)cc24)CCC3)n1
Response: 0 (no)

Continuing:
Request: Kindly provide the recorded test outcome for the following compound: COc1cc([C@@H]2c3cc4c(cc3[C@H](O)[C@H]3COC(=O)[C@@H]23)OCO4)cc(OC)c1OC
Response: 0 (no)

Request: Kindly provide the recorded test outcome for the following compound: CN(C[C@@H]1COCCO1)S(=O)(=O)Nc1ccc2ccc3ncc(-c4cnn(C)c4)cc3c(=O)c2c1
Response: 1 (yes)

Request: Kindly provide the recorded test outcome for the following compound: CO[C@H]1C[C@@H]2CC[C@@H](C)[C@@](O)(O2)C(=O)C(=O)N2CCCC[C@H]2C(=O)O[C@H]([C@H](C)C[C@@H]2CC[C@@H](OC(=O)C(C)(CO)CO)[C@H](OC)C2)CC(=O)[C@H](C)/C=C(\C)[C@@H](O)[C@@H](OC)C(=O)[C@H](C)C[C@H](C)/C=C/C=C/C=C/1C
Response: 0 (no)

Request: Kindly provide the recorded test outcome for the following compound: Cc1cc(C(=O)NOCCO)c(Nc2ccc(I)cc2F)n(C)c1=O
Response: 0 (no)

###

Target: Serine/threonine-protein kinase 3 (Homo sapiens, UniProt Q13188); also: in the data inactive means no Kd found up to 30 µM
Sequence (Q13188 whole entry): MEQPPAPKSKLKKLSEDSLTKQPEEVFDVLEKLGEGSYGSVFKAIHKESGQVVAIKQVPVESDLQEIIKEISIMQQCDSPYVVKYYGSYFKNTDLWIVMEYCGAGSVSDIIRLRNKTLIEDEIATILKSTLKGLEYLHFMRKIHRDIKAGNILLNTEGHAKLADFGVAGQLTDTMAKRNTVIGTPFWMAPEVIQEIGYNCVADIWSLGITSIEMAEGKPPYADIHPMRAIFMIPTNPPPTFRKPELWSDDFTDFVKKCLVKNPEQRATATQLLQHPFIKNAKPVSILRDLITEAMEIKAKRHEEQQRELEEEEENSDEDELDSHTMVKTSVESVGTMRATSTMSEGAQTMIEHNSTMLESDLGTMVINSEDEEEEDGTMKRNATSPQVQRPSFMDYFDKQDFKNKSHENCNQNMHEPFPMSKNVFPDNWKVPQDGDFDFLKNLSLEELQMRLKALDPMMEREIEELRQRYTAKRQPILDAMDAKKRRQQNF
Activity calls are given as the source filed them.
Answer with one of the outcomes given here: YES for active, NO for inactive

Request: Kindly provide the recorded test outcome for the following compound: CO[C@H]1C[C@@H]2CC[C@@H](C)[C@@](O)(O2)C(=O)C(=O)N2CCCC[C@H]2C(=O)O[C@H]([C@H](C)C[C@@H]2CC[C@@H](O)[C@H](OC)C2)CC(=O)[C@H](C)/C=C(\C)[C@@H](O)[C@@H](OC)C(=O)[C@H](C)C[C@H](C)/C=C/C=C/C=C/1C
Response: NO

Request: Kindly provide the recorded test outcome for the following compound: FC(F)(F)c1ccc(/C=C/c2nc(COc3ccc(CCCCn4ccnn4)cc3)co2)cc1
Response: NO

Request: Kindly provide the recorded test outcome for the following compound: CN1CCN(CCOc2cc(OC3CCOCC3)c3c(Nc4c(Cl)ccc5c4OCO5)ncnc3c2)CC1
Response: NO

Continuing:
Request: Kindly provide the recorded test outcome for the following compound: C#Cc1cccc(Nc2ncnc3cc(OC)c(OCCCCCCC(=O)NO)cc23)c1
Response: NO

Request: Kindly provide the recorded test outcome for the following compound: CO[C@H]1C[C@@H]2CC[C@@H](C)[C@@](O)(O2)C(=O)C(=O)N2CCCC[C@H]2C(=O)O[C@H]([C@H](C)C[C@@H]2CC[C@@H](OC(=O)C(C)(CO)CO)[C@H](OC)C2)CC(=O)[C@H](C)/C=C(\C)[C@@H](O)[C@@H](OC)C(=O)[C@H](C)C[C@H](C)/C=C/C=C/C=C/1C
Response: NO

Request: Kindly provide the recorded test outcome for the following compound: CC(C)c1cc(CNc2nc(Nc3cc(C4CC4)[nH]n3)cc(N3CCN(C)CC3)n2)on1
Response: YES
